- Tested on: PLK2;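 also: KINOMEscan kinase panel screen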
- Applied conditions: concentration: 1 μM, replicates: in singlicate; n = 1
Readings of %Inh for the listed compounds
Express it in %; write the number only.

Below, 4 compounds whose answers are already recorded.
[
  {
    "Compound": "N#Cc1c(N2CCOCC2)sc(-c2ccn[nH]2)c1-c1ccc(Cl)cc1",
    "Unit info": "%",
    "%Inh": 20
  },
  {
    "Compound": "COC(=O)Nc1nc2cc(Oc3ccc(NC(=O)Nc4cc(F)ccc4F)cc3)ccc2[nH]1.Cl",
    "Unit info": "%",
    "%Inh": 0
  },
  {
    "Compound": "O=c1cc(N2CCOCC2)nc2n(Cc3cccc(F)c3)ccn12",
    "Unit info": "%",
    "%Inh": 0
  },
  {
    "Compound": "Fc1ccc(-c2ncn(CCCN3CCOCC3)c2-c2cccnc2)cc1",
    "Unit info": "%",
    "%Inh": 0
  }
]

%Inh in this record for `Cc1ccc(C(=O)NCC(N)=O)cc1-n1c(C)cc(OCc2ccc(F)cc2F)c(Br)c1=O` : 0

For COc1ccc(CNC(=O)NC2CCN(c3ccnc(Nc4ccc(OC)cc4)n3)C2)cc1 (stereo not drawn) the compound record lists %Inh as 0

Lab book: %Inh of `CCc1nc(-c2cccc(C)c2)c(-c2ccnc(NCc3ccccc3)c2)s1` noted as 7

Entry `COc1cc2c(cc1OC[C@@H](O)CO)ncc1c3ccc(C#N)cc3[nH]c21` — recorded %Inh = 0

Documented %Inh of `[2H]C([2H])(c1cccc(C(F)(F)F)c1C)n1ccn2c(=O)nc(N3CCOCC3)cc12` : 0
